Please go through the items and note down their Percent Effect.
# Assayed system: Shiga toxin 2 (Escherichia coli O157:H7) (UniProt P09385+P09386)
# Method: E. coli 0.157:H7 Shiga Toxin SOP - stx2 screening assay
# Type: functional
# Design: scale not given: direction of the effect not stated beside the values
# Experimental parameters: 30 µM
I only need the number, in %, no unit after it.

The recorded Percent Effect for `Cc1cccc(CN2C[C@@H]3CCCO[C@@H]3[C@H](NS(C)(=O)=O)C2)n1` is -20.3

The recorded Percent Effect for CCC(C)c1noc(C2CCN(C(=O)c3cccnc3)CC2)n1 (centres undefined) is -27.8

The recorded Percent Effect for Cc1noc(CN2Cc3ccccc3CC2c2nnc(C)o2)n1 (centres undefined) is -7.76

The recorded Percent Effect for `CS(=O)(=O)CC(=O)N1C[C@@H]2COC[C@]2(c2nnc(C3CC3)o2)C1` is -40.1

The recorded Percent Effect for `CCN(CC)C(=O)c1ccc(NC(=O)CNc2ccc(F)cc2Cl)cc1` is -38.1

The recorded Percent Effect for `O=C(CNCCn1cccn1)NCC1(c2ccccc2)CC1` is 13.4

The recorded Percent Effect for `CC(C)(C)c1noc(CN2CCCN(Cc3cccs3)CC2)n1` is -1.06

The recorded Percent Effect for `NC(=O)CN1CCC(NC(=O)c2ccn(-c3cccc(F)c3)n2)CC1` is -20

The recorded Percent Effect for `CCN1CCC2(CCC(=O)N2Cc2cccc(C)n2)CC1` is 1.16

Origin of values: ChEMBL document CHEMBL3988442
